For each of the molecules below, state its MIC.
# Test system: Streptococcus pyogenes PIU 2548
Respond with the bare value in µg/mL.

Request: Look up MIC for this molecule: CC[C@H]1OC(=O)[C@H](C)C(=O)[C@H](C)[C@@H](O[C@@H]2O[C@H](C)C[C@H](N(C)C)[C@H]2O)[C@](C)(OCC#Cc2ccc(-c3nccn3C)s2)C[C@@H](C)C(=O)[C@H](C)[C@H]2NC(=O)O[C@@]21C
Result: 0.39

Request: Consider next the molecule CC[C@H]1OC(=O)[C@H](C)C(=O)[C@H](C)[C@@H](O[C@@H]2O[C@H](C)C[C@H](N(C)C)[C@H]2O)[C@](C)(OC/C=C/c2cncc(-c3ccccn3)c2)C[C@@H](C)C(=O)[C@H](C)[C@H]2NC(=O)O[C@@]21C in the same way.
Result: 0.2

Request: What do we get for CC[C@H]1OC(=O)[C@H](C)C(=O)[C@H](C)[C@@H](O[C@@H]2O[C@H](C)C[C@H](N(C)C)[C@H]2O)[C@](C)(OCC#Cc2ccc(-c3ccc(Cl)s3)s2)C[C@@H](C)C(=O)[C@H](C)[C@H]2NC(=O)O[C@@]21C ?
Result: 0.2

Request: Now consider CC[C@H]1OC(=O)[C@H](C)C(=O)[C@H](C)[C@@H](O[C@@H]2O[C@H](C)C[C@H](N(C)C)[C@H]2O)[C@](C)(OC/C=C/c2cncc(-c3cncnc3)c2)C[C@@H](C)C(=O)[C@H](C)[C@H]2NC(=O)O[C@@]21C .
Result: 0.39

* * *

Reported MIC, Nocardia Asteroides ATCC9970.
Just the number please, in µg/mL, no unit attached.

Request: Query: MIC; subject: CC[C@H]1OC(=O)[C@H](C)C(=O)[C@H](C)[C@@H](O[C@@H]2O[C@H](C)C[C@H](N(C)C)[C@H]2O)[C@](C)(OC/C=C/c2cncc(-c3ccsc3)c2)C[C@@H](C)C(=O)[C@H](C)[C@H]2NC(=O)O[C@@]21C
Result: 0.05

Request: // repeat for CC[C@H]1OC(=O)[C@H](C)C(=O)[C@H](C)[C@@H](O[C@@H]2O[C@H](C)C[C@H](N(C)C)[C@H]2O)[C@](C)(OC/C=C/c2cncc(-c3ccccc3)c2)C[C@@H](C)C(=O)[C@H](C)[C@H]2NC(=O)O[C@@]21C and report
Result: 0.2

Request: Another molecule to look at: CC[C@H]1OC(=O)[C@H](C)C(=O)[C@H](C)[C@@H](O[C@@H]2O[C@H](C)C[C@H](N(C)C)[C@H]2O)[C@](C)(OC/C=C/c2ccc(-c3cncnc3)s2)C[C@@H](C)C(=O)[C@H](C)[C@H]2NC(=O)O[C@@]21C
Result: 0.02

Request: Please do the same for CC[C@H]1OC(=O)[C@H](C)C(=O)[C@H](C)[C@@H](O[C@@H]2O[C@H](C)C[C@H](N(C)C)[C@H]2O)[C@](C)(OCC#Cc2ccc(-c3cccc(C(F)(F)F)c3)s2)C[C@@H](C)C(=O)[C@H](C)[C@H]2NC(=O)O[C@@]21C as well.
Result: 0.39

* * *

# System: Nocardia Asteroides ATCC9970
I'd appreciate it if you could supply MIC values for the items below.
Unit µg/mL implied. Number only.

Request: Find the recorded MIC belonging to CC[C@H]1OC(=O)[C@H](C)C(=O)[C@H](C)[C@@H](O[C@@H]2O[C@H](C)C[C@H](N(C)C)[C@H]2O)[C@](C)(OCC#Cc2ccc(-c3cncc(C(=O)NN(C)C)c3)s2)C[C@@H](C)C(=O)[C@H](C)[C@H]2NC(=O)O[C@@]21C [Example 12] and report it.
Result: 0.2

Request: Next up: CC[C@H]1OC(=O)[C@H](C)C(=O)[C@H](C)[C@@H](O[C@@H]2O[C@H](C)C[C@H](N(C)C)[C@H]2O)[C@](C)(OCC#Cc2ccc(-c3cccc([N+](=O)[O-])c3)s2)C[C@@H](C)C(=O)[C@H](C)[C@H]2NC(=O)O[C@@]21C [Example 21]
Result: 0.2

Request: Repeat for the following compound: CC[C@H]1OC(=O)[C@H](C)C(=O)[C@H](C)[C@@H](O[C@@H]2O[C@H](C)C[C@H](N(C)C)[C@H]2O)[C@](C)(OCC#Cc2ccc(-c3cccc(OC)c3)s2)C[C@@H](C)C(=O)[C@H](C)[C@H]2NC(=O)O[C@@]21C [Example 14]
Result: 0.1

Request: Now this one: CC[C@H]1OC(=O)[C@H](C)C(=O)[C@H](C)[C@@H](O[C@@H]2O[C@H](C)C[C@H](N(C)C)[C@H]2O)[C@](C)(OC/C=C/c2cncc(-c3cnc4ccccc4c3)c2)C[C@@H](C)C(=O)[C@H](C)[C@H]2NC(=O)O[C@@]21C [Example 44]
Result: 0.1

Request: What do you get for CC[C@H]1OC(=O)[C@H](C)C(=O)[C@H](C)[C@@H](O[C@@H]2O[C@H](C)C[C@H](N(C)C)[C@H]2O)[C@](C)(OCC#Cc2ccc(-c3ccncc3)s2)C[C@@H](C)C(=O)[C@H](C)[C@H]2NC(=O)O[C@@]21C [Example 3] ?
Result: 0.01

Request: Ok, now CC[C@H]1OC(=O)[C@H](C)C(=O)[C@H](C)[C@@H](O[C@@H]2O[C@H](C)C[C@H](N(C)C)[C@H]2O)[C@](C)(OC/C=C/c2ccc(-c3cnc(N)s3)s2)C[C@@H](C)C(=O)[C@H](C)[C@H]2NC(=O)O[C@@]21C [Example 53]
Result: 0.1

Request: Now consider CC[C@H]1OC(=O)[C@H](C)C(=O)[C@H](C)[C@@H](O[C@@H]2O[C@H](C)C[C@H](N(C)C)[C@H]2O)[C@](C)(OCC#Cc2ccc(-c3ccccc3)s2)C[C@@H](C)C(=O)[C@H](C)[C@H]2NC(=O)O[C@@]21C [Example 13] and answer again.
Result: 0.78

Request: Now this one: CC[C@H]1OC(=O)[C@H](C)C(=O)[C@H](C)[C@@H](O[C@@H]2O[C@H](C)C[C@H](N(C)C)[C@H]2O)[C@](C)(OCC#Cc2ccc(-c3cccc(F)c3)s2)C[C@@H](C)C(=O)[C@H](C)[C@H]2NC(=O)O[C@@]21C [Example 15]
Result: 0.2

Request: Param item: CC[C@H]1OC(=O)[C@H](C)C(=O)[C@H](C)[C@@H](O[C@@H]2O[C@H](C)C[C@H](N(C)C)[C@H]2O)[C@](C)(OCC#Cc2ccc(-c3cncc(C(N)=O)c3)s2)C[C@@H](C)C(=O)[C@H](C)[C@H]2NC(=O)O[C@@]21C [Example 9]
Result: 0.1

Request: Thanks! And CC[C@H]1OC(=O)[C@H](C)C(=O)[C@H](C)[C@@H](O[C@@H]2O[C@H](C)C[C@H](N(C)C)[C@H]2O)[C@](C)(OC/C=C/c2ccc(-c3ccco3)s2)C[C@@H](C)C(=O)[C@H](C)[C@H]2NC(=O)O[C@@]21C [Example 77] ?
Result: 0.2

Request: Now the same for CC[C@H]1OC(=O)[C@H](C)C(=O)[C@H](C)[C@@H](O[C@@H]2O[C@H](C)C[C@H](N(C)C)[C@H]2O)[C@](C)(OCC#Cc2ccc(-c3nccs3)s2)C[C@@H](C)C(=O)[C@H](C)[C@H]2NC(=O)O[C@@]21C [Example 28]
Result: 0.05

Request: Next compound: CC[C@H]1OC(=O)[C@H](C)C(=O)[C@H](C)[C@@H](O[C@@H]2O[C@H](C)C[C@H](N(C)C)[C@H]2O)[C@](C)(OC/C=C/c2ccc(-c3ccncn3)s2)C[C@@H](C)C(=O)[C@H](C)[C@H]2NC(=O)O[C@@]21C [Example 64]
Result: 0.01

Request: Similarly, CC[C@H]1OC(=O)[C@H](C)[C@@H](O[C@H]2C[C@@](C)(OC)[C@@H](O)[C@H](C)O2)[C@H](C)[C@@H](O[C@@H]2O[C@H](C)C[C@H](N(C)C)[C@H]2O)[C@](C)(O)C[C@@H](C)C(=O)[C@H](C)[C@@H](O)[C@]1(C)O [Ery. A, Erythromycin A, reference compound] ?
Result: 0.1

Request: What do we get for CC[C@H]1OC(=O)[C@H](C)C(=O)[C@H](C)[C@@H](O[C@@H]2O[C@H](C)C[C@H](N(C)C)[C@H]2O)[C@](C)(OC/C=C/c2ccc(-c3cccs3)s2)C[C@@H](C)C(=O)[C@H](C)[C@H]2NC(=O)O[C@@]21C [Example 74] ?
Result: 0.1
